B1: tRNA (parent)
chain: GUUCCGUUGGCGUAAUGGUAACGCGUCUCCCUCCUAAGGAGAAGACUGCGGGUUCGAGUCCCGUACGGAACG

Variants of: B1
Assay: yeast fitness relative to wild type (ratio to wild type); higher = fitter; tRNA-Arg(CCU), competitive growth, 37 C, YPD
This sample holds only a part of the variants without activity.
Overview of reported yeast fitness across a group of variants:

>  <residue.string>
GUUCCGUUGGCGUAAUGGUAACGCGUCUACCUCCUACGGAGAAGACUGCGGGUUCGAGUCCCGUACGGAACG

>  <yeast fitness>
0.597

$$$$
>  <residue.string>
GUUCCGUUGGCCUAAUGGUAACGCGUAUCCCUCCUAAAGAGAAGACUGCGGGUUCGAGUCCCGUACGGAACG

>  <yeast fitness>
0.584

$$$$
>  <residue.string>
GUUUAGUUGGCGUAAUGGUAACGCGUCUCCCUCCUAAGGAGAAGACUGCGGGUUCGAGUCCCGUAUGGAACG

>  <yeast fitness>
0.61

$$$$
>  <residue.string>
GUUCUGUUGGCGUAAUGGUAACGCGUAUCCCUCCUAAGGAGAAGACUGCGGGUUCGAGUCUCGUACGGAACG

>  <yeast fitness>
0.589

$$$$
>  <residue.string>
GUUCCGUUGGCGUAAUGGUAACGCGUCUCCCUCCUUAGGAGAAGCCUGCGGGUUCGAGUCCCCUACGGAACG

>  <yeast fitness>
0.614

$$$$
>  <residue.string>
GUUCCGUUGGCGUAAUGGUAACGCGUCUGGCUCCUAAGGAGAAGACUGCGGGUUCGAGUCCCAUACGGAACG

>  <yeast fitness>
0.607

$$$$
>  <residue.string>
GGUCCGUUGGCGUAGUGGUAACGCGCCUCCCUCUUAAGGAGAAGACUGCGGGUUCGAGUCCCGUACGGAACG

>  <yeast fitness>
0.611

$$$$
>  <residue.string>
GUUCCGUUGGCGUAAUGGUAACGCGUUUCCCUCCUAAGGAGAUGACUGCGGGUUUGAGUCCCGUACGGAACG

>  <yeast fitness>
0.592

$$$$
